B1: Twister Ribozyme (parent)
chain: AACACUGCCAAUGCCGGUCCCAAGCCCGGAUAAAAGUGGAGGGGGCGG

variants of: B1; assay: self-cleavage, relative activity (ratio to wild type); higher = more cleavage; co-transcriptional
For each of the variants below, state its self-cleavage.
Just the number, please, no unit after it.

Query: Sample G29U U37G — what was its self-cleavage?
Reply: 0.418

Query: For the variant shown here, C8A C19U , give the reported self-cleavage.
Reply: 0.107

Query: Record request: self-cleavage value, item A1U C3G
Reply: 0.0927

Query: What does the data say about its self-cleavage? Entry: A10U U18G
Reply: 0.115

Query: What value of self-cleavage has been reported for the following variant? C21U A23G
Reply: 0.0801

Query: // query self-cleavage value for entry A11G A40U
Reply: 0.126

Query: Would you kindly share the measured self-cleavage for G39U G45U ?
Reply: 0.141

Query: Look up self-cleavage: C8G C25A
Reply: 0.0886

Query: # lookup: self-cleavage of G17U A33C
Reply: 0.199

Query: Item A23G G28U has what recorded self-cleavage?
Reply: 0.184

Query: What value of measured self-cleavage is listed for G29C A35C ?
Reply: 0.701

Query: What does the data say about its self-cleavage? Entry: A10U G47A
Reply: 0.946

Query: Which value of self-cleavage has been reported for G7U C19U in the records?
Reply: 0.0568

Query: Data request, read-out self-cleavage, for C9U G45U
Reply: 0.328

Query: # get_value(readout='self-cleavage', item= C9U G29C )
Reply: 0.242

Query: Looking for the measured self-cleavage of A11C G13C , can you help?
Reply: 0.164

Query: Looking for the measured self-cleavage of G13A A40U , can you help?
Reply: 0.209

Query: Need self-cleavage of A2U A11G , thanks.
Reply: 0.586

Query: Quick check: self-cleavage of G7A A30G ?
Reply: 0.405

Query: State the recorded self-cleavage for this entry: C26A A34C
Reply: 0.0918

Query: Which self-cleavage is reported for this variant? C14A G29A
Reply: 0.974

Query: Which self-cleavage value is on record for U31G C46A ?
Reply: 1.1
